Data provenance is the supplement of paper PMC12764529.

- Run description: folding stability dG unfold from chymotrypsin proteolysis; higher = more stable
Outcome measure: folding stability dG unfold (kcal/mol)
Give bare numbers, in kcal/mol.

Examples with answers:
SAGGYPAEIEASNVKPEELKKAIEDAPWAKELDVEVEDSSPDGSVKAKFKANSKAEVKRFEKAVKDAFSAGG [r13_580_TrMRF]; -0.448
SAGGSAGGSPANIKITTTLDTETGYLTIVAYNPATGKVTVLTAKIYGNVPHIDGLEALFGALGSAGGSAGGS [r20_131_TrMRF]; 3.02
SAGGSAGGSAEELVKYLAKEHGHPPGKEVTIPFDNWMIKIRYNNDGVPVGVEIKPMPPDDMSAGGSAGGSAG [r3_468_TrROS]; 0.288
SAGGSAGGSMKTKTIEIEIDGKKVRITIDSDGNITIEVPSEEVKEALKKLLPPGVKITKIEPVSAGGSAGGS [r12_9_TrROS_Hall]; 1.61

// for each sequence below, give its folding stability dG unfold
1. SAGGSAGGSAGTIRIKMKDGKPMEFPLKGLPKEDLDDPEFLDWIKDWARDSGMKIDDIEISAGGSAGGSAGG [r11_467_TrROS]
2. SAGGSAGGSMKIYEVPPEVAENMSLEEIIESLVLPGYPAKAEAFEDEGPGYVLVDLFLPPELGSAGGSAGGS [r12_716_TrMRF]
3. SAGMPEVKLLPKPDGSLVLVVVFEDKAIIIEFPPDGEGKIYIIDLKNNKITEIPFPSEDPLKAIKEALSSAG [r5_674_TrMRF]
4. SMTTEEKVEVSVTVTPDPNSDNVTLTLTITKRTYAKDENGNWTEVSTETSTITVTLSPEEAAKLAAELLSSA [r9_642_JUSTAS]

1.09
1.02
3.99
4.52

Below are some sequences; for each one, tell me its folding stability dG unfold.
1. SAGGSLKIKIRNPDGMPFKIDVVRYPNHIRIKFKFGNKPVAFMIDPESDTINFRIPGWPFQIEIEPSAGGSA [r2_194_TrROS]
2. SMTYSYGVDVSEDPNSDKTTATITTTSSDGSSSLSPEEVAAELAAEAKAAGYTVDVELRPGSVTITVTAPSA [r9_510_JUSTAS]

1. 3.39
2. 0.108

---

Kindly state folding stability dG unfold for each of the entries shown.
- Run description: folding stability dG unfold from trypsin proteolysis; higher = more stable
Numbers only, in kcal/mol.

Some solved cases for reference:
SAGGSAGGPYYIMVDIEMYNPQDGKERNFTLMIPVPPGDLPKIKEELLSAGFPIKIKNISIMPPSAGGSAGG [r6_151_TrROS]; 2.62
SAGSMSFELTVDYEKLPDGTYRVRATITIYDPNNNNPLKTVDFEGEATSEEEAEARARARAEEVKEAASAGG [r19_255_JUSTAS]; 1.84
SAGGPKIKIEAFPDGTVKITIELPDGVTIVIELKFDPETGTVHAKITLLPKDKPVTFEFTFKIPPDASAGGS [r16_230_TrMRF]; 3.34

We next turn to a different sequence, shown below.
Please indicate folding stability dG unfold recorded for GMNLKETTVTIPLKVKSEEEAKKKAEEIANELKKKYPDIIEIKIEIKEIDKETGIVIITIKFKAKNSSVLLS [r1_52_JUSTAS]
2.18

---

- Run description: folding stability dG unfold from chymotrypsin proteolysis; higher = more stable
Please go through the items and note down their folding stability dG unfold.
Numbers only, in kcal/mol.

Worked cases, answers included:
SAKKKITVKIKIEYDKETGTLKVEVEITYPDGKKVKVEAEIDLKTGKITIKVYDKNGKLIAEIEIELPPSAG [r14_524_TrROS_Hall]; 2.35
SAGGSAGGSAGLLPIEELLKKNPEPVTFMVKDNDTLYRIEITPKDGKWTIEIEPLPGMKPSAGGSAGGSAGG [r11_549_TrROS]; 1.49
SAGGSAGGSAGPPGEPVRIKLKFPNGNPIEIPGKLDDAEEIAEELQSEGFPFSKVEVEKWSAGGSAGGSAGG [r11_946_TrROS]; -0.257
SAGGSAGGSAGGMRIRLENGEVIKIKNAKTKEELLNALKAIPGLKIEYDEETKELWIYRSAGGSAGGSAGGS [r10_792_TrROS_Hall]; 2.33
SAGGSAGGSAGGKTYRVKVRIYNPETGEVLEIEVEVETDTEEEAKRAAENLARELLKKSSAGGSAGGSAGGS [r10_863_TrROS_Hall]; 3.7

Give folding stability dG unfold for all sequences that follow.
1. SLPPSLTYTLKLSHPDGSTVTATVFPGGSLRVTVYAPGGVKVAESEYPVDDLEALMKALGIKEVLSMELASA [r9_1107_JUSTAS]
2. SAGGSAGGSKSYEIKEITFDPENNTITIVLVAPDGKIVRTETFKPGEEVVFTFENGEKVTVKASAGGSAGGS [r12_441_TrMRF]

1: 2.85; 2: 2.83
